- experiment: Stability of each 7-peptide compound in rat whole blood
- Assay type: in vitro ADME
- conditionsUsed: rat whole blood, 37° C., 1000 ng/mL, incubation time 5 min; read-out: Recovery rate (%) M±SD
Peptide text beside a SMILES is read from it. * marks the point of attachment. X1 = CC(=O)N[C@H]1C(*)O[C@H](CO)[C@@H](O)[C@@H]1O
outcomeMeasure: recovery (%)
Express your answer in %, writing the number without its unit.

- molecule: "CC(=O)N[C@H]1C(OC[C@H](NC(=O)[C@@H](NC(=O)[C@H](Cc2ccc(O)cc2)NC(=O)[C@@H](NC(=O)[C@H](CCC(N)=O)NC(=O)CN)[C@@H](C)OC2O[C@H](CO)[C@@H](O)[C@H](O)[C@H]2NC(C)=O)[C@@H](C)O)C(=O)NCC(=O)O)O[C@H](CO)[C@@H](O)[C@@H]1O (some centres unmarked) [SIPI-G9, GQT(Glc)YTS(Glc)G] (H-GQT(X1)YTS(X1)G-OH)"
  recovery [%]: 98.3

Look up recovery: CC(=O)N[C@H]1C(O[C@H](C)[C@H](NC(=O)[C@H](CCC(N)=O)NC(=O)CN)C(=O)N[C@@H](Cc2ccc(O)cc2)C(=O)N[C@H](C(=O)N[C@@H](CO)C(=O)NCC(=O)O)[C@@H](C)O)O[C@H](CO)[C@@H](O)[C@@H]1O (some centres unmarked) [SIPI-G6, GQT(Glc)YTSG] (H-GQT(X1)YTSG-OH)
81.3

* * *

- experiment: Plasma drug concentrations and pharmacokinetics after a single intravenous or subcutaneous injection of SIPI-G9 in SD rats
- conditionsUsed: male, SD, rat, plasma, sc, 5 mg/kg, Plasma G-9 concentration, Mean, SIPI-G9 5 mg/kg s.c., SD rats, 180 min, n=3
Peptide text beside a SMILES is read from it. * marks the point of attachment. X1 = CC(=O)N[C@H]1C(*)O[C@H](CO)[C@@H](O)[C@@H]1O
outcomeMeasure: level at 3 h (ng/mL)
Provide the reading as a plain figure in ng/mL.

Give its level at 3 h value. Item: CC(=O)N[C@H]1C(OC[C@H](NC(=O)[C@@H](NC(=O)[C@H](Cc2ccc(O)cc2)NC(=O)[C@@H](NC(=O)[C@H](CCC(N)=O)NC(=O)CN)[C@@H](C)OC2O[C@H](CO)[C@@H](O)[C@H](O)[C@H]2NC(C)=O)[C@@H](C)O)C(=O)NCC(=O)O)O[C@H](CO)[C@@H](O)[C@@H]1O (stereo partly shown) [SIPI-G9, GQT(Glc)YTS(Glc)G] (H-GQT(X1)YTS(X1)G-OH)
6.01

* * *

- experiment: Plasma drug concentrations and pharmacokinetics after a single intravenous or subcutaneous injection of SIPI-G9 in SD rats
- conditionsUsed: male, SD, rat, plasma, iv, 1 mg/kg, Plasma G-9 concentration, Mean, SIPI-G9 1 mg/kg i.v., SD rats, 6 min, n=3
Peptide text beside a SMILES is read from it. * marks the point of attachment. X1 = CC(=O)N[C@H]1C(*)O[C@H](CO)[C@@H](O)[C@@H]1O
outcomeMeasure: level at 0.1 h (µg/mL)
Report the figure in µg/mL without appending any unit label.

GET /values?readout=level at 0.1 h&item= CC(=O)N[C@H]1C(OC[C@H](NC(=O)[C@@H](NC(=O)[C@H](Cc2ccc(O)cc2)NC(=O)[C@@H](NC(=O)[C@H](CCC(N)=O)NC(=O)CN)[C@@H](C)OC2O[C@H](CO)[C@@H](O)[C@H](O)[C@H]2NC(C)=O)[C@@H](C)O)C(=O)NCC(=O)O)O[C@H](CO)[C@@H](O)[C@@H]1O (stereo partly shown) [SIPI-G9, GQT(Glc)YTS(Glc)G] (H-GQT(X1)YTS(X1)G-OH)
0.264
